Entries and their measured log10 IC50 follow.
molecular target: SOS1 and KRAS G12D (protein-protein interaction) (Homo sapiens); assay: KRAS::SOS1 AlphaScreen binding assay; settings: read-out: IC50 (SOS1)
endpoint label: log10 IC50 (log10 of the value in nM)

{"compound": "CNC(=O)CC(C)c1cc2c(N[C@H](C)c3cccc(C(F)(F)F)c3)nc(C)nc2cc1C (some centres unmarked)", "study target": "SOS1 and KRAS G12D (protein-protein interaction) (Homo sapiens)", "endpoint value": 1.00}
{"compound": "Cc1nc(N[C@H](C)c2cc(N)cc(C(F)(F)F)c2)c2cc([C@H]3CC[C@H](C(=O)N(C)[C@H]4CCOC4)CC3)ccc2n1", "study target": "SOS1 and KRAS G12D (protein-protein interaction) (Homo sapiens)", "endpoint value": 0.60}
{"compound": "Cc1nc(N[C@H](C)c2cc(N)cc(C(F)(F)F)c2)c2cc(-c3ccc(=O)[nH]c3)ccc2n1", "study target": "SOS1 and KRAS G12D (protein-protein interaction) (Homo sapiens)", "endpoint value": 0.95}
{"compound": "COCCN1CCN(C(=O)[C@H]2CC[C@H](c3ccc4nc(C)nc(N[C@H](C)c5cc(N)cc(C(F)(F)F)c5)c4c3)CC2)CC1", "study target": "SOS1 and KRAS G12D (protein-protein interaction) (Homo sapiens)", "endpoint value": 0.30}
{"compound": "CC(=O)N1CCC(c2ccc3nc(C)nc(N[C@H](C)c4cccc(C(F)(F)F)c4)c3c2)CC1", "study target": "SOS1 and KRAS G12D (protein-protein interaction) (Homo sapiens)", "endpoint value": 1.23}
{"compound": "COc1cc2nc(C)nc(N[C@H](C)c3cc(N)cc(C(F)(F)F)c3F)c2cc1[C@H]1CC[C@H](C(=O)N(C)C)CC1", "study target": "SOS1 and KRAS G12D (protein-protein interaction) (Homo sapiens)", "endpoint value": 0.30}
{"compound": "COc1cc2nc(C)nc(N[C@H](C)c3cccc(C(F)(F)F)c3C)c2cc1[C@H]1CC[C@H](C(=O)N(C)CCO)CC1", "study target": "SOS1 and KRAS G12D (protein-protein interaction) (Homo sapiens)", "endpoint value": 0.70}
{"compound": "COCC(=O)N1CCC(c2cc3c(N[C@H](C)c4cccc(C)c4)nc(C)nc3cc2OC)CC1", "study target": "SOS1 and KRAS G12D (protein-protein interaction) (Homo sapiens)", "endpoint value": 1.30}
{"compound": "Cc1nc(N[C@H](C)c2cc(N)cc(C(F)(F)F)c2)c2cc([C@H]3CC[C@@H](C(=O)N(C)[C@H]4CCOC4)CC3)ccc2n1", "study target": "SOS1 and KRAS G12D (protein-protein interaction) (Homo sapiens)", "endpoint value": 1.00}
{"compound": "Cc1nc(N[C@H](C)c2cc(N)cc(C(F)(F)F)c2)c2cc(C3CCS(=O)(=O)CC3)c(C)cc2n1", "study target": "SOS1 and KRAS G12D (protein-protein interaction) (Homo sapiens)", "endpoint value": 0.48}
{"compound": "COc1cc2nc(C)nc(N[C@H](C)c3cccc(C(F)(F)F)c3)c2cc1C1CCN(C(C)=O)CC1", "study target": "SOS1 and KRAS G12D (protein-protein interaction) (Homo sapiens)", "endpoint value": 0.95}
{"compound": "COc1cc2nc(C)nc(N[C@H](C)c3cc(N)cc(C(F)(F)F)c3F)c2cc1[C@H]1CC[C@@H](C(=O)N(C)C)CC1", "study target": "SOS1 and KRAS G12D (protein-protein interaction) (Homo sapiens)", "endpoint value": 1.54}
{"compound": "CCn1cc(-c2cc3c(N[C@H](C)c4cc(N)cc(C(F)(F)F)c4)nc(C)nc3cc2C)ccc1=O", "study target": "SOS1 and KRAS G12D (protein-protein interaction) (Homo sapiens)", "endpoint value": 0.78}
{"compound": "Cc1nc(N[C@H](C)c2cc(N)cc(C(F)(F)F)c2)c2cc([C@H]3CC[C@H](C(=O)N4CCN(C)CC4)CC3)cc(C)c2n1", "study target": "SOS1 and KRAS G12D (protein-protein interaction) (Homo sapiens)", "endpoint value": 0.70}
{"compound": "Cc1cccc([C@@H](C)Nc2nc(C)nc3cc(C)c(-c4ccc(C(=O)N5CCOCC5)cc4)cc23)c1", "study target": "SOS1 and KRAS G12D (protein-protein interaction) (Homo sapiens)", "endpoint value": 1.64}
{"compound": "Cc1nc(N[C@H](C)c2cccc(C(F)(F)F)c2)c2cc(C(C)CC(=O)NCC(F)(F)F)c(C)cc2n1 (some centres unmarked)", "study target": "SOS1 and KRAS G12D (protein-protein interaction) (Homo sapiens)", "endpoint value": 1.62}
{"compound": "Cc1nc(N[C@H](C)c2cc(N)cc(C(F)(F)F)c2)c2cc([C@H]3CC[C@H](C(=O)N(C)[C@@H]4CCOC4)CC3)ccc2n1", "study target": "SOS1 and KRAS G12D (protein-protein interaction) (Homo sapiens)", "endpoint value": 0.70}
